target.entity: Muscarinic acetylcholine receptor M1 (Homo sapiens)
Sequence (P11229 whole entry): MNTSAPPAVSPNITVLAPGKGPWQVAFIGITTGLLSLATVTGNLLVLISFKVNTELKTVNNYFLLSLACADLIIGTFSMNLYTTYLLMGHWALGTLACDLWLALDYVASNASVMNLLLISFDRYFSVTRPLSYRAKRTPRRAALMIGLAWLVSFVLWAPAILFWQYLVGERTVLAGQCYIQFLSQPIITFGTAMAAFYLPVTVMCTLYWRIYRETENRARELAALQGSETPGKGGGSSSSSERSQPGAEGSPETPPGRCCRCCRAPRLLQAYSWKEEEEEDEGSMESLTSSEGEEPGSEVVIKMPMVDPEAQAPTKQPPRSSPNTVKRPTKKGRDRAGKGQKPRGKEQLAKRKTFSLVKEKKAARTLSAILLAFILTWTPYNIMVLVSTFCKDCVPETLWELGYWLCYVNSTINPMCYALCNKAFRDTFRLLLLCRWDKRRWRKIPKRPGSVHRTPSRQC
assay.info: Allosteric modulation of human muscarinic M1 acetylcholine receptor expressed CHO cells assessed as intracellular calcium mobilization after 1 hr by Fluo-4-AM based fluorescence assay
Format: functional, cell-based
measurement.kind: EC50 (nM)
The figure you give is taken to be in nM; do not add the unit.

Q: Find EC50 (Muscarinic acetylcholine receptor M1 (Homo sapiens)) for the entry COc1ccc(Cn2cc(C(=O)O)c(=O)c3c(F)ccc(F)c32)cc1
Result: 31.6
